Target: Bile acid receptor (Homo sapiens) (UniProt Q96RI1)
Sequence (whole entry): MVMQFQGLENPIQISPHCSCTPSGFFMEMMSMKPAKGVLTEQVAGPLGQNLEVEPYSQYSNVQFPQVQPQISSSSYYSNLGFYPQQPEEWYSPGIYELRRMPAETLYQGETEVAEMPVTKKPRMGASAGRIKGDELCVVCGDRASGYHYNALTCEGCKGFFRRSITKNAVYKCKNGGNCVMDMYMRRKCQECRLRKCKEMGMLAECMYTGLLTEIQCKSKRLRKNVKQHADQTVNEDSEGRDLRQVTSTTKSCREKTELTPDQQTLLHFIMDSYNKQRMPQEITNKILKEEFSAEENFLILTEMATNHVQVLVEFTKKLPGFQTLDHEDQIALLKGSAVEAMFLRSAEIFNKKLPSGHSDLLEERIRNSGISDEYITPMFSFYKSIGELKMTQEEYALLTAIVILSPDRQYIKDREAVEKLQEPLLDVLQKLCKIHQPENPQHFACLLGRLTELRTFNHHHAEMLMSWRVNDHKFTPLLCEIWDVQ
Assay: Transactivation of human FXR expressed in human HeLa cells co-expressing BSEP at 3 uM after 24 hrs by dual-glo luciferase reporter gene assay relative to GW4064
Assay type: cell-based
The source made the active and inactive calls. No cut-off for these calls is given here.
quantity-kind: max activation

Examples with answers:
- structure-smiles: "Cc1ccc2nc(-c3ccc(F)cc3)c(NCc3ccccc3)n2c1"
  readout-value: "21%"
- structure-smiles: "Cc1ccc2nc(-c3cccs3)c(NCCCc3ccccc3)n2c1"
  readout-value: "18%"
- structure-smiles: "COc1ccc(-c2nc3ccc(C)cn3c2NCc2ccccc2)cc1OC"
  readout-value: "16%"
- structure-smiles: "Fc1ccc2nc(-c3cccs3)c(NCc3ccccc3)n2c1"
  readout-value: "inactive"
- structure-smiles: "Cc1ccc(-c2nc3ccc(C)cn3c2NCc2ccccc2)cc1"
  readout-value: "14%"

Task item: Using known records, supply max activation for `Cc1ccc2nc(-c3cccnc3)c(NCc3ccccc3)n2c1`
Reply: 17%

Task item: Using known records, supply max activation for `Cc1ccc2nc(-c3ccc(-c4ccccc4)cc3)c(NCc3ccccc3)n2c1`
Reply: 17%

Task item: Using known records, supply max activation for `Cc1cccc2nc(-c3cccs3)c(NCc3ccccc3)n12`
Reply: inactive

Task item: Using known records, supply max activation for `COc1cccc(-c2nc3ccc(C)cn3c2NCc2ccccc2)c1`
Reply: 16%

Task item: Using known records, supply max activation for `Cc1ccc2nc(-c3ccc(Cl)cc3)c(NCc3ccccc3)n2c1`
Reply: 14%

Task item: Using known records, supply max activation for `c1ccc(CNc2c(-c3cccs3)nc3ccc(-c4ccccc4)cn23)cc1`
Reply: 17%

---

Target: Bile acid receptor (Homo sapiens)
Assay: Transactivation of human FXR expressed in human HeLa cells co-expressing BSEP at 3 uM after 24 hrs by dual-glo luciferase reporter gene assay relative to GW4064
Assay type: cell-based
The source made the active and inactive calls. The rule behind the calls is not given here.
quantity-kind: max activation

- structure-smiles: "Cc1ccc2nc(-c3cccs3)c(Cc3ccccc3)n2c1"
  max activation: "12%"
- structure-smiles: "Cc1ccc2nc(-c3ccccc3)c(NCc3ccccc3)n2c1"
  max activation: "16%"
- structure-smiles: "Cc1ccc2nc(-c3cccs3)c(NCCc3ccccc3)n2c1"
  max activation: "12%"
- structure-smiles: "Cc1ccc2nc(-c3cccc(Cl)c3)c(NCc3ccccc3)n2c1"
  max activation: "20%"
- structure-smiles: "c1ccc(CNc2c(-c3cccs3)nc3cnccn23)cc1"
  max activation: "inactive"

Task item: Return reported max activation for target or system Bile acid receptor (Homo sapiens), item `Cc1ccc2nc(C3CCCCC3)c(NCc3ccccc3)n2c1` .
Reply: inactive

Task item: Return reported max activation for target or system Bile acid receptor (Homo sapiens), item `c1ccc(CNc2c(-c3cccs3)nc3ccccn23)cc1` .
Reply: 14%

Task item: Return reported max activation for target or system Bile acid receptor (Homo sapiens), item `Cc1ccc2nc(/C=C/c3ccccc3)c(NCc3ccccc3)n2c1` .
Reply: 13%

Task item: Return reported max activation for target or system Bile acid receptor (Homo sapiens), item `Cc1ccc2nc(-c3cnccn3)c(NCc3ccccc3)n2c1` .
Reply: 18%

Task item: Return reported max activation for target or system Bile acid receptor (Homo sapiens), item `Cc1ccc(CNc2c(-c3cccs3)nc3ccc(C)cn23)cc1` .
Reply: 14%

Task item: Return reported max activation for target or system Bile acid receptor (Homo sapiens), item `Cc1ccc2nc(-c3ccco3)c(NCc3ccccc3)n2c1` .
Reply: 17%

Task item: Return reported max activation for target or system Bile acid receptor (Homo sapiens), item `Cc1ccc2nc(-c3cccs3)c(NCc3ccccc3)n2c1` .
Reply: 15%
